test system: NCI-H520; test: relative viability (nuclei count vs DMSO), 5 days (fraction); higher = more cells survive; conditions: first compound 0.03162 µM
measured.parameter: relative viability
Quick one: just the number, no unit, thanks!

Problem: What value of relative viability has been recorded for this entry: CC(C)Oc1cc(Nc2nc(N[C@@H](C)c3ccc(F)cn3)ncc2Cl)n[nH]1 [AZ23] + CS(=O)(=O)N1CCN(Cc2cc3nc(-c4cccc5[nH]ncc45)nc(N4CCOCC4)c3s2)CC1 [Pictilisib] (partner 1 µM)
Solution: 0.309

Problem: What value of relative viability has been recorded for this entry: CC(C)Oc1cc(Nc2nc(N[C@@H](C)c3ccc(F)cn3)ncc2Cl)n[nH]1 [AZ23] + CS(=O)(=O)CCNCc1ccc(-c2ccc3ncnc(Nc4ccc(OCc5cccc(F)c5)c(Cl)c4)c3c2)o1 [Lapatinib] (partner 2 µM)
Solution: 0.964

Problem: What value of relative viability has been recorded for this entry: CC(C)Oc1cc(Nc2nc(N[C@@H](C)c3ccc(F)cn3)ncc2Cl)n[nH]1 [AZ23] + CC1(C)CCC(c2ccc(Cl)cc2)=C(CN2CCN(c3ccc(C(=O)NS(=O)(=O)c4ccc(N[C@H](CCN5CCOCC5)CSc5ccccc5)c(S(=O)(=O)C(F)(F)F)c4)cc3)CC2)C1 [Navitoclax] (partner 0.5 µM)
Solution: 1.31

Problem: What value of relative viability has been recorded for this entry: CC(C)Oc1cc(Nc2nc(N[C@@H](C)c3ccc(F)cn3)ncc2Cl)n[nH]1 [AZ23] + C[C@@H](Oc1cc(-c2cnn(C3CCNCC3)c2)cnc1N)c1c(Cl)ccc(F)c1Cl [Crizotinib] (partner 1 µM)
Solution: 0.864
